Test system: Escherichia coli TOP10;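 note: peptides expressed intracellularly from a pBAD plasmid library in pooled LB shake-flask culture, induced with 0.3% L-arabinose, DNA abundance read by NGS, three biological replicates, DESeq2 with apeglm shrinkage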
Experiment: shrunken log2 fold change of peptide-encoding DNA abundance (4.5 h post-induction vs induction); higher = less antimicrobial activity (less host growth inhibition)
Conditions: time post-induction: 4.5 h; library: site-saturation at positions 5, 18, 19, 20
We use 0.2 as the dividing line for shrunken log2 fold change: on or above the line is Yes, below is No.

# input Determine whether measured shrunken log2 fold change meets or exceeds 0.2 for RRIRNRPPRLPRPRPRPIWPPRP
# output No

# input Answer whether shrunken log2 fold change of RRIRMRPPRLPRPRPRPYNLPRP is greater than or equal to 0.2.
# output Yes

# input Has RRIRFRPPRLPRPRPRPLSKPRP a recorded shrunken log2 fold change greater than or equal to 0.2?
# output Yes

# input Hello, I need to know if RRIRTRPPRLPRPRPRPWNQPRP has measured shrunken log2 fold change not below 0.2. Thanks!
# output No

# input Quick check: does RRIRHRPPRLPRPRPRPTGPPRP have shrunken log2 fold change greater than or equal to 0.2?
# output No

# input Decide: shrunken log2 fold change of RRIRVRPPRLPRPRPRPEIAPRP >= 0.2?
# output No

# input Confirm if shrunken log2 fold change reported for the sequence RRIRERPPRLPRPRPRPSDGPRP is 0.2 or above.
# output No

# input Could you tell me if the measured shrunken log2 fold change of RRIRRRPPRLPRPRPRPHPHPRP reaches 0.2 or more?
# output No

# input Confirm if shrunken log2 fold change reported for the sequence RRIRPRPPRLPRPRPRPWDSPRP is 0.2 or above.
# output No

# input Is shrunken log2 fold change for RRIRLRPPRLPRPRPRPSWKPRP at or above 0.2?
# output No

# input Check the entry RRIRKRPPRLPRPRPRPQDQPRP : does shrunken log2 fold change equal or exceed 0.2?
# output Yes

# input Determine whether this sequence has shrunken log2 fold change no lower than 0.2: RRIRRRPPRLPRPRPRPDLNPRP
# output No

# input Check this sequence for shrunken log2 fold change at or above 0.2: RRIRCRPPRLPRPRPRPTWGPRP
# output Yes

# input Given RRIRYRPPRLPRPRPRPHMMPRP , state whether its shrunken log2 fold change is at least 0.2.
# output No

# input Is it the case that RRIRHRPPRLPRPRPRPLPTPRP has shrunken log2 fold change reaching or exceeding 0.2?
# output Yes

# input Quick check, shrunken log2 fold change >= 0.2? RRIRKRPPRLPRPRPRPEEGPRP
# output No

# input shrunken log2 fold change >= 0.2 for RRIRSRPPRLPRPRPRPRTRPRP ?
# output Yes

# input Say whether RRIRQRPPRLPRPRPRPTIAPRP shows shrunken log2 fold change of 0.2 or more.
# output No

# input Has RRIRGRPPRLPRPRPRPDPGPRP a recorded shrunken log2 fold change greater than or equal to 0.2?
# output Yes

# input Check if shrunken log2 fold change >= 0.2 (inclusive). Item: RRIRVRPPRLPRPRPRPYNSPRP
# output No

# input Identify whether the reported shrunken log2 fold change of the following sequence is 0.2 or greater: RRIRRRPPRLPRPRPRPEYDPRP
# output No

# input Reported shrunken log2 fold change reaches at least 0.2 for RRIRYRPPRLPRPRPRPYYYPRP ?
# output No

# input Assess whether reported shrunken log2 fold change for RRIRVRPPRLPRPRPRPGGMPRP sits at 0.2 or higher.
# output No

# input Dear colleague, could you confirm whether RRIRIRPPRLPRPRPRPFIPPRP has shrunken log2 fold change at or above 0.2?
# output No

# input Does RRIRCRPPRLPRPRPRPAHCPRP have a reported shrunken log2 fold change of at least 0.2?
# output Yes
